Read-out record for Cannabinoid receptor 2 (Homo sapiens, UniProt P34972): log10 Ki
Kindly note that the scale is log10 and the underlying Ki is in nM.

In the examples that follow, each entry is paired with its recorded log10 Ki.
[
  {
    "compound": "CCCC(C)(C)C(=O)Nc1cc(C)c(C)c(S(=O)(=O)N2CCOCC2)c1",
    "observed value": 0.99
  },
  {
    "compound": "CCC(C)(C)C(=O)Nc1cc(C)c(C)c(S(=O)(=O)N2CCCCCC2)c1",
    "observed value": 0.95
  },
  {
    "compound": "CCC(C)(C)C(=O)Nc1cc(C)c(C)c(S(=O)(=O)N2CC[C@H](O)C2)c1",
    "observed value": 1.95
  },
  {
    "compound": "Cc1cc(NC(=O)C(C)(C)O)cc(S(=O)(=O)N2CCOCC2)c1C",
    "observed value": 3.32
  },
  {
    "compound": "CCC(C)(C)C(=O)Nc1cc(C)c(C)c(S(=O)(=O)N2CCCCC2)c1",
    "observed value": 0.43
  },
  {
    "compound": "CCC(C)(C)C(=O)Nc1cc(S(=O)(=O)N2CCOCC2)c(C)c(C)c1C",
    "observed value": 2.61
  },
  {
    "compound": "CCC(C)(C)C(=O)Nc1cc(C)c(C)c(S(=O)(=O)N2CCS(=O)(=O)CC2)c1",
    "observed value": 0.92
  },
  {
    "compound": "CCC(C)(C)C(=O)Nc1cc(C)c(C)c(S(=O)(=O)N2CCOCC2)c1",
    "observed value": 1.23
  },
  {
    "compound": "COCCC(C)(C)C(=O)Nc1cc(C)c(C)c(S(=O)(=O)N2CCOCC2)c1",
    "observed value": 2.04
  },
  {
    "compound": "CCC(C)(C)C(=O)Nc1cc2c(c(S(=O)(=O)N3CCOCC3)c1)CCCC2",
    "observed value": 1.15
  }
]

[Q] # query: log10 Ki of entry Cc1cc(NC(=O)C(C)(C)c2ccccc2)cc(S(=O)(=O)N2CCOCC2)c1C
[A] 2.08

[Q] # query: log10 Ki of entry CCC(C)(C)C(=O)Nc1cc(C)c(C)c(S(=O)(=O)N2CCC[C@@H]2CO)c1
[A] 1.63

[Q] # query: log10 Ki of entry CCC(C)(C)C(=O)Nc1cc(C)c(C)c(S(=O)(=O)NCC2CC2)c1
[A] 1.82

[Q] # query: log10 Ki of entry Cc1cc(NC(=O)C(C)(C(F)(F)F)C(F)(F)F)cc(S(=O)(=O)N2CCOCC2)c1C
[A] 0.82

###

Assay: Oral bioavailability in Sprague-Dawley rat at 100 mg/kg
Type: ADME, organism-based
Conditions: in vivo
readout type: bioavailability (%)
Report as a plain number; the unit % is understood.

[Q] # query: bioavailability of entry CCC(C)(C)C(=O)Nc1cc(C)c(C)c(S(=O)(=O)N2CCOCC2)c1
[A] 22

###

Property: log10 EC50; scope: individual compounds
Molecular target: Cannabinoid receptor 2 (Rattus norvegicus, UniProt Q9QZN9)
Assay: Agonist activity at rat brain CB2 receptor by GTPgammaS binding assay
Kindly note that the scale is log10 and the underlying EC50 is in nM.

[
  {
    "compound": "CCC(C)(C)C(=O)Nc1cc(C)c(C)c(S(=O)(=O)N2CCS(=O)(=O)CC2)c1",
    "log10 EC50": 1.30
  },
  {
    "compound": "CCC(C)(C)C(=O)Nc1cc(C)c(C)c(S(=O)(=O)NCC2CC2)c1",
    "log10 EC50": 2.13
  },
  {
    "compound": "CCC(C)(C)C(=O)Nc1cc(C)c(C)c(S(=O)(=O)N2CCCCCC2)c1",
    "log10 EC50": 1.34
  }
]

[Q] # query: log10 EC50 of entry Cc1cc(NC(=O)C(C)(C)C)cc(S(=O)(=O)N2CCOCC2)c1C
[A] 1.95

[Q] # query: log10 EC50 of entry Cc1cc(NC(=O)C2C(C)(C)C2(C)C)cc(S(=O)(=O)N2CCOCC2)c1C
[A] 1.82

###

Tested on: Liver microsomes
Assay: Metabolic stability in rat liver microsomes
Format: ADME, Microsome
The label is Condition met for Stability below 2% and Condition not met for Stability equal to or exceeding 2%.

Consider the worked cases shown below.
[
  {
    "compound": "CCC(C)(C)C(=O)Nc1cc(C)c(C)c(S(=O)(=O)N2CCOCC2)c1",
    "assigned label": "Condition not met"
  },
  {
    "compound": "Cc1cc(NC(=O)C2C(C)(C)C2(C)C)cc(S(=O)(=O)N2CCOCC2)c1C",
    "assigned label": "Condition not met"
  },
  {
    "compound": "CCCC(C)(C)C(=O)Nc1cc(C)c(C)c(S(=O)(=O)N2CCOCC2)c1",
    "assigned label": "Condition not met"
  },
  {
    "compound": "CCC(C)(C)C(=O)Nc1cc(C)c(C)c(S(=O)(=O)N2CCCCCC2)c1",
    "assigned label": "Condition met"
  }
]

[Q] Consider the compound CCC(C)(C)C(=O)Nc1cc(C)c(C)c(S(=O)(=O)N2CCSC2)c1 . Is its Stability strictly less than 2%?
[A] Condition met

[Q] Consider the compound CCC(C)(C)C(=O)Nc1cc2c(c(S(=O)(=O)N3CCOCC3)c1)CCC2 . Is its Stability strictly less than 2%?
[A] Condition not met

###

Test: Tmax in Sprague-Dawley rat at 100 mg/kg, po
Format: ADME, organism-based
Set-up: dose 100 mg/kg, route oral
Settings: in vivo
readout type: Tmax (h)
Report as a plain number; the unit h is understood.

[Q] # query: Tmax of entry CCC(C)(C)C(=O)Nc1cc(C)c(C)c(S(=O)(=O)N2CCOCC2)c1
[A] 6

###

Read-out record for Cannabinoid receptor 1 (Homo sapiens, UniProt P21554): pKi
Kindly note that pKi refers to -log10 of the concentration in mol/L and answer with the value alone.

[
  {
    "compound": "CCC(C)(C)C(=O)Nc1cc(C)c(C)c(S(=O)(=O)N2CCCCC2)c1",
    "pKi": 6.19
  },
  {
    "compound": "CCC(C)(C)C(=O)Nc1cc(C)c(C)c(S(=O)(=O)N2CCOCC2)c1",
    "pKi": 5.60
  }
]

# ---- query molecule ----
[Q] What reported pKi corresponds to CCC(C)(C)C(=O)Nc1cc2c(c(S(=O)(=O)N3CCOCC3)c1)CCC2 on Cannabinoid receptor 1 (Homo sapiens, UniProt P21554)?
[A] 5.77

###

Read-out record for Cannabinoid receptor 2 (Homo sapiens, UniProt P34972): Ki
Answer with the value and then the unit.

[Q] # query: Ki of entry CCC(C)(C)C(=O)Nc1ccc(C)c(S(=O)(=O)N2CCOCC2)c1
[A] 290 nM

###

Target: Cannabinoid receptor 2 (Rattus norvegicus, UniProt Q9QZN9)
Sequence (Q9QZN9 whole entry): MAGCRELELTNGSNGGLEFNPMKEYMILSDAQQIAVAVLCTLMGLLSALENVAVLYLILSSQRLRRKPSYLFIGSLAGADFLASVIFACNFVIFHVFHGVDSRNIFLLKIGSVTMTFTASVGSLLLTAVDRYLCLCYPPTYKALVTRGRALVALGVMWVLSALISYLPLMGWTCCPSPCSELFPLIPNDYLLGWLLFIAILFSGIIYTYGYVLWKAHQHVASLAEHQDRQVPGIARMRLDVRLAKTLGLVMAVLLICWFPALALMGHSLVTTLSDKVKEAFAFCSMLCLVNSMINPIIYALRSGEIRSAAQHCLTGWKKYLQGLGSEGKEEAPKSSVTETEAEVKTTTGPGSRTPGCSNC
Assay: Agonist activity at rat brain CB2 receptor by GTPgammaS binding assay
readout type: EC50 (nM)
Report as a plain number; the unit nM is understood.

In the examples that follow, each entry is paired with its recorded EC50.
[
  {
    "compound": "CCC(C)(C)C(=O)Nc1cc(C)c(C)c(S(=O)(=O)N2CCCCC2)c1",
    "tested system": "Cannabinoid receptor 2 (Rattus norvegicus, UniProt Q9QZN9)",
    "units label": "nM",
    "observed value": 13
  },
  {
    "compound": "Cc1ccc(NC(=O)C2C(C)(C)C2(C)C)cc1S(=O)(=O)N1CCOCC1",
    "tested system": "Cannabinoid receptor 2 (Rattus norvegicus, UniProt Q9QZN9)",
    "units label": "nM",
    "observed value": 11
  },
  {
    "compound": "CCC(C)(C)C(=O)Nc1cc(C)c(C)c(S(=O)(=O)NC2CCCC2)c1",
    "tested system": "Cannabinoid receptor 2 (Rattus norvegicus, UniProt Q9QZN9)",
    "units label": "nM",
    "observed value": 98
  },
  {
    "compound": "CCC(C)(C)C(=O)Nc1cc2c(c(S(=O)(=O)N3CCOCC3)c1)CCCC2",
    "tested system": "Cannabinoid receptor 2 (Rattus norvegicus, UniProt Q9QZN9)",
    "units label": "nM",
    "observed value": 1400
  },
  {
    "compound": "CCCC(C)(C)C(=O)Nc1cc(C)c(C)c(S(=O)(=O)N2CCOCC2)c1",
    "tested system": "Cannabinoid receptor 2 (Rattus norvegicus, UniProt Q9QZN9)",
    "units label": "nM",
    "observed value": 21
  },
  {
    "compound": "CCC(C)(C)C(=O)Nc1cc2c(c(S(=O)(=O)N3CCOCC3)c1)CCC2",
    "tested system": "Cannabinoid receptor 2 (Rattus norvegicus, UniProt Q9QZN9)",
    "units label": "nM",
    "observed value": 1700
  },
  {
    "compound": "CCC(C)(C)C(=O)Nc1cc(C)c(C)c(S(=O)(=O)N2CCOCC2)c1",
    "tested system": "Cannabinoid receptor 2 (Rattus norvegicus, UniProt Q9QZN9)",
    "units label": "nM",
    "observed value": 38
  },
  {
    "compound": "CCCCC(C)(C)C(=O)Nc1cc(C)c(C)c(S(=O)(=O)N2CCOCC2)c1",
    "tested system": "Cannabinoid receptor 2 (Rattus norvegicus, UniProt Q9QZN9)",
    "units label": "nM",
    "observed value": 82
  },
  {
    "compound": "CCC(C)(C)C(=O)Nc1cc(C)c(C)c(S(=O)(=O)N2CCC[C@@H]2CO)c1",
    "tested system": "Cannabinoid receptor 2 (Rattus norvegicus, UniProt Q9QZN9)",
    "units label": "nM",
    "observed value": 98
  },
  {
    "compound": "Cc1cc(NC(=O)C(C)(C(F)(F)F)C(F)(F)F)cc(S(=O)(=O)N2CCOCC2)c1C",
    "tested system": "Cannabinoid receptor 2 (Rattus norvegicus, UniProt Q9QZN9)",
    "units label": "nM",
    "observed value": 11
  }
]

[Q] # query: EC50 of entry CCC(C)(C)C(=O)Nc1cc(C)c(C)c(S(=O)(=O)N2CC[C@H](O)C2)c1
[A] 73

[Q] # query: EC50 of entry CCC(C)(C)C(=O)Nc1cc(C)c(C)c(S(=O)(=O)N2CCSC2)c1
[A] 12

meta.source: ChEMBL document CHEMBL1153132
